Reported growth inhibition values follow for various molecules
test: NCI Yeast Anticancer Drug Screen. Data for the mec2-1 strain (AID 157); details: S. cerevisiae mec2-1 strain, at 50.0 µM, stronger effect = higher value
This is part of a sample that, as a whole, favours compounds with a hit. Of some 79,000 tested, about 15% had one in any assay.
Kindly answer with a numeric value in %, unit omitted.

Examples from the recorded data:
COc1ccc(CN2CCCN(Cc3ccc(OC)cc3OC)C2c2cc(OC)ccc2OC)c(OC)c1 :: -0.85
Cc1[nH]nc(-c2ccon2)c1N :: -3.3
S=C(OCCCCCn1cnc2c(=S)nc[nH]c21)Oc1ccccc1 :: 16

# input Indicate its recorded growth inhibition; the molecule in question is COC(=O)c1c([N+](=O)[O-])ncn1[C@H]1OC[C@@H](OC(C)=O)[C@@H](OC(C)=O)[C@@H]1OC(C)=O
# output -8.6

# input Name the recorded growth inhibition of the molecule listed here: COC(=O)c1cn2ccc3ccccc3c2c1C(=O)OC
# output 2.15

# input Determine its reported growth inhibition: O=P(c1ccccc1)(c1ccccc1)c1ccccc1OCCOCCOc1ccccc1P(=O)(c1ccccc1)c1ccccc1
# output -3.75

# input Identify measured growth inhibition associated with NC(=O)N/N=C/c1ccc([N+](=O)[O-])s1
# output -0.8
